B1: glmS ribozyme (parent)
chain: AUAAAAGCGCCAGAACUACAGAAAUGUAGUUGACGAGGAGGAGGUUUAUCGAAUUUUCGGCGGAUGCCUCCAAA

Variants of: B1
Test: self-cleavage kobs at 640 uM GlcN6P; higher = faster cleavage; RNA array
Conditions: with glucosamine-6-phosphate
Variants at the floor of the assay were thinned out.
Would you please tag the item met when its self-cleavage kobs at 640 uM GlcN6P is 0.0004 s⁻¹ or above, and not met when it is below?

- Mutation Name: "G9A G44C A53G U57A"
  Class: "not met"
- Mutation Name: "C10G C11U G41A C70U"
  Class: "not met"
- Mutation Name: "A39G G41U"
  Class: "met"
- Mutation Name: "A6C G41A U54G G59A G62C"
  Class: "not met"
- Mutation Name: "U31G C58A"
  Class: "not met"
- Mutation Name: "G29U G66C"
  Class: "not met"
- Mutation Name: "C8A A36U A64U C70U"
  Class: "not met"
- Mutation Name: "A14U U30G U54C"
  Class: "met"
- Mutation Name: "G60U G66U"
  Class: "not met"
- Mutation Name: "A36G A42U U56C"
  Class: "not met"
